- Target: human ether-à-go-go-related gene (hERG) potassium channel (human, UniProt Q12809);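 further: peak tail current of the secondary pulse compared with the same well before compound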
- Sequence (Q12809 whole entry, looked up): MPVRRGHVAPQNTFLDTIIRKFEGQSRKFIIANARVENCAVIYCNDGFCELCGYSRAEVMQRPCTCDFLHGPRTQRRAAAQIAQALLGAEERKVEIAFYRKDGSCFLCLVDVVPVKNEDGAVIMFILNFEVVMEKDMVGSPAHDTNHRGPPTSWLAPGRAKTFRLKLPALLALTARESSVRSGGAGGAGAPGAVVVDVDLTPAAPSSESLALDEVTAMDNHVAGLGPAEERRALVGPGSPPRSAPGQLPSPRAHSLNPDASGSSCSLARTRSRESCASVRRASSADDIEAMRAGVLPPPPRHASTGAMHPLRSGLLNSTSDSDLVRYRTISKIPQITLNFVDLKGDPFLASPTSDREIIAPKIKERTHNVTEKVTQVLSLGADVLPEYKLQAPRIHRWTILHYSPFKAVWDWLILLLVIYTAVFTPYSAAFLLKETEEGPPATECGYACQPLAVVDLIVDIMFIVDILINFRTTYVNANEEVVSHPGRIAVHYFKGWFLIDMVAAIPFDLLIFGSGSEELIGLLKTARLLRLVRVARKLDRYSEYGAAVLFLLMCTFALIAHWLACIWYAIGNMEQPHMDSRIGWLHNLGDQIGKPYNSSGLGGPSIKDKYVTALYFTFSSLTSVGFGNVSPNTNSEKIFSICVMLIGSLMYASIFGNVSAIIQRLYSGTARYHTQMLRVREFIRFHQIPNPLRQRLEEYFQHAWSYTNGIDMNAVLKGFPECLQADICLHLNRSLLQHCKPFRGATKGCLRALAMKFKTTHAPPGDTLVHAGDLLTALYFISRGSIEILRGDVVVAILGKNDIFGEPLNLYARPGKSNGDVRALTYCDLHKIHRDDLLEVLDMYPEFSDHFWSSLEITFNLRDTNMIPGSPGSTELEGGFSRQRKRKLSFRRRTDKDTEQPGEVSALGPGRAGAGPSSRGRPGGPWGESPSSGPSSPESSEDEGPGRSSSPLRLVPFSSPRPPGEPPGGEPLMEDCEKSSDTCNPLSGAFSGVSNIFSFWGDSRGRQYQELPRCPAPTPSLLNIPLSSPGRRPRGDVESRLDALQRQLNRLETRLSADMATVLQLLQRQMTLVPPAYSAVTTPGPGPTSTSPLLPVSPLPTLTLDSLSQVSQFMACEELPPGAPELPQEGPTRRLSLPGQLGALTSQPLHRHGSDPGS
- Assay Text: primary screen, population patch clamp on CHO cells stably expressing hERG; higher = less effect of the substance
The whole screen tested about 310,000 compounds, of which about 14,000 (4.5%) showed an effect of 50% or more. Effects have a minus sign here. Shown is part of a subset that was picked to be rich in strong results.
Property: hERG current change (%, negative = inhibition) at 10uM (%)
Give bare numbers, in %.

molecule=Cc1ccc(NC(=O)c2sc(Cl)nc2-c2ccccc2)cc1 target="human ether-à-go-go-related gene (hERG) potassium channel (human, UniProt Q12809)" endpoint_result=18.2
molecule=CCOC(=O)c1csc(N)c1-c1ccc([N+](=O)[O-])cc1 target="human ether-à-go-go-related gene (hERG) potassium channel (human, UniProt Q12809)" endpoint_result=6.52
molecule=O=C(COCc1cc(-c2ccc3c(c2)OCO3)on1)N1CCCCC1 target="human ether-à-go-go-related gene (hERG) potassium channel (human, UniProt Q12809)" endpoint_result=4.66
molecule=Cc1ccc(OC(=O)c2ccc(S(=O)(=O)N(C)C)cc2)c(-n2nc3ccccc3n2)c1 target="human ether-à-go-go-related gene (hERG) potassium channel (human, UniProt Q12809)" endpoint_result=3.83

Provide reported hERG current change (%, negative = inhibition) at 10uM for each item, in the same order as listed.
1. O=C(CSc1ccc(-c2cccnc2)nn1)N1CCCCCC1
2. CCOC(=O)c1cc(=O)[nH]c2ccccc12
3. O=C(O)CNC(=S)N(Cc1ccccc1F)C1CCCCC1
4. Nc1[nH]c2cc([N+](=O)[O-])ccc2c1-c1ccccn1
5. COc1cccc(C(C(=O)NC2CCCC2)N(Cc2cccnc2)C(=O)Cc2cccs2)c1 (stereo not shown)
6. CCOC(=O)c1cc2[nH]c3ccccc3c2[n+](-c2ccc([N+](=O)[O-])cc2)c1C.[Cl-]

23.2
19
0.581
20.1
-5.67
-77.8
